Biological target: human Nav1.7 (Homo sapiens, UniProt Q15858)
Construct: expressed in transfected cells; host or cells: HEK293
Sequence (Q15858 whole entry): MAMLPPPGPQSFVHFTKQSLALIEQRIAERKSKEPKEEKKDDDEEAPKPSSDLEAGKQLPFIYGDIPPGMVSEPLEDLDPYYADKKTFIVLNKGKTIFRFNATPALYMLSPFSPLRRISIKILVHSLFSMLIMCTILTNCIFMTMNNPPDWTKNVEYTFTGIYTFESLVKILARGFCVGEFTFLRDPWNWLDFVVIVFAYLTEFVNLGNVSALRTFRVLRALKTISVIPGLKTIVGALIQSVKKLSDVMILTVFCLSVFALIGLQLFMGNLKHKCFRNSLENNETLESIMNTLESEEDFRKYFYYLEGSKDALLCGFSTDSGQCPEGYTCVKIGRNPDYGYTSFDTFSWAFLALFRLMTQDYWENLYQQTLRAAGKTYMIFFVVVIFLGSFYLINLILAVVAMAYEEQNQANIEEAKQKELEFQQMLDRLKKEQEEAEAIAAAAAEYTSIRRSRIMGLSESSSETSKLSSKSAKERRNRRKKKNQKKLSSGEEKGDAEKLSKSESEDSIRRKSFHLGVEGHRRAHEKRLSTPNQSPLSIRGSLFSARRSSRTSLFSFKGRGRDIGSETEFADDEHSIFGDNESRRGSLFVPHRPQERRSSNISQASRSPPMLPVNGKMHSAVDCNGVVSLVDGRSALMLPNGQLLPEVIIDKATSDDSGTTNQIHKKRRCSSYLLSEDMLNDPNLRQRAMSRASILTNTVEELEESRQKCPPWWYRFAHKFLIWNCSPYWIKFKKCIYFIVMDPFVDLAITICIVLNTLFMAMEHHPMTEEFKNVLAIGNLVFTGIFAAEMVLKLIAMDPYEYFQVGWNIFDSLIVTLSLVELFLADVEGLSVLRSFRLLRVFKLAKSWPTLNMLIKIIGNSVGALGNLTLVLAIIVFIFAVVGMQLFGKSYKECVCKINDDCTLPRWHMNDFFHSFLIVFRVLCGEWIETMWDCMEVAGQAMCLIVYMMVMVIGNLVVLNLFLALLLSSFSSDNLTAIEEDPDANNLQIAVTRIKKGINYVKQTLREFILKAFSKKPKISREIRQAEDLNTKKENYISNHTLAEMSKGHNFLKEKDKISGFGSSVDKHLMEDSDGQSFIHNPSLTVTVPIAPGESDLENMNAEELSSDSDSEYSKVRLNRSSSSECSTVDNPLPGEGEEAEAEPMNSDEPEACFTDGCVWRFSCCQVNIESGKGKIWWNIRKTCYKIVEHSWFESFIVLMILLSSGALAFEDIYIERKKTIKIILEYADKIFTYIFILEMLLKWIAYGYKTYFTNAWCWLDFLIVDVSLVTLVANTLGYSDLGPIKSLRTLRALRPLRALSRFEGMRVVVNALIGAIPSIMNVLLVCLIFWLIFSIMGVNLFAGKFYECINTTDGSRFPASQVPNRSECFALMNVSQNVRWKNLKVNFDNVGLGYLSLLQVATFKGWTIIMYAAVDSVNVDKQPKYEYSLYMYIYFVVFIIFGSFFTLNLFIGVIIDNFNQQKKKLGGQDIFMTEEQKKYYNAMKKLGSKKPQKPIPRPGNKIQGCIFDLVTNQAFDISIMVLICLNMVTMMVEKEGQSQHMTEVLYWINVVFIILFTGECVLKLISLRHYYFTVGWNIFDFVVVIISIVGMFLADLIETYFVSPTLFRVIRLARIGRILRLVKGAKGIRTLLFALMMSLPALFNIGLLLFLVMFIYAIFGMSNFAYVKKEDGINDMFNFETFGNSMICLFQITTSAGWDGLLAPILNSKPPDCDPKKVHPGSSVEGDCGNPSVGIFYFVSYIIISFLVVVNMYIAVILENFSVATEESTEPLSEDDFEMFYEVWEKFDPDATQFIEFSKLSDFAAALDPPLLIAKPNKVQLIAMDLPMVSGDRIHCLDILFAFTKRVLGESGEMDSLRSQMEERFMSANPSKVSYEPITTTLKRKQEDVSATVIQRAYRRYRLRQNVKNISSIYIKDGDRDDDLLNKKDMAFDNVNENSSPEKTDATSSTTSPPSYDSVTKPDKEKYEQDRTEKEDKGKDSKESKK
Assay: Nav 1.7 IWB In Vitro Assay (IonWorks Barracuda)
Type: cell-based
Conditions: HEK293 cells stably transfected with human Nav 1.7; IonWorks Barracuda population patch-clamp; cells clamped to −20 mV for 4 minutes with compound; 26th pulse; read-out: hNav1.7 IWB IC50
Listed below: IC50 values for each entry.

{"compound": "COc1cc(-c2cccc(C(F)(F)F)c2)c(F)cc1-n1c2c(ccc1=O)CN(S(=O)(=O)Nc1ccon1)CC2 (single isomer, unassigned) [Example 16-P]", "unit.spec": "µM", "reported.relation": "=", "IC50": 0.0024}
{"compound": "COc1cc(-c2ccc(F)c(F)c2)c(F)cc1-n1c2c(ccc1=O)CN(S(=O)(=O)Nc1ncccn1)CC2 (single isomer, unassigned) [Example 28-P]", "unit.spec": "µM", "reported.relation": "=", "IC50": 0.0805}
{"compound": "COc1cc(Br)c(Cl)cc1-n1c2c(ccc1=O)CN(S(=O)(=O)Nc1ccon1)CC2 (single isomer, unassigned) [Preparation 8c-M]", "unit.spec": "µM", "reported.relation": ">", "IC50": 25}
{"compound": "COc1cc(-c2cccc(OC(F)F)c2)c(F)cc1-n1c2c(ccc1=O)CN(S(=O)(=O)Nc1ccon1)CC2 (single isomer, unassigned) [Example 19-M]", "unit.spec": "µM", "reported.relation": "=", "IC50": 1.94}
{"compound": "COc1cc(-c2cc(F)cc(Cl)c2)c(F)cc1-n1c2c(ccc1=O)CN(S(=O)(=O)Nc1cccc(F)n1)CC2 (single isomer, unassigned) [Example 13-M]", "unit.spec": "µM", "reported.relation": "=", "IC50": 0.983}
{"compound": "COc1cc(-c2ccc(F)c(F)c2)c(F)cc1-n1c2c(ccc1=O)CN(S(=O)(=O)Nc1ccon1)CC2 (racemic) [Example 20-(Rac)]", "unit.spec": "µM", "reported.relation": "=", "IC50": 0.0315}
{"compound": "COc1cc(Cl)cc(-c2cc(OC)c(-n3c4c(ccc3=O)CN(S(=O)(=O)Nc3ccon3)CC4)cc2F)c1", "unit.spec": "µM", "reported.relation": "=", "IC50": 0.0088}
{"compound": "COc1cc(-c2ccc(Cl)c(C)c2)c(F)cc1-n1c2c(ccc1=O)CN(S(=O)(=O)Nc1nccs1)CC2 (racemic)", "unit.spec": "µM", "reported.relation": "=", "IC50": 0.0378}
{"compound": "COc1cc(-c2cccc(Cl)c2OC)c(F)cc1-n1c2c(ccc1=O)CN(S(=O)(=O)Nc1cccnn1)CC2", "unit.spec": "µM", "reported.relation": "=", "IC50": 0.0085}
{"compound": "COc1cc(-c2ccc(F)c(OC(F)(F)F)c2)c(F)cc1-n1c2c(ccc1=O)CN(S(=O)(=O)Nc1cccnn1)CC2", "unit.spec": "µM", "reported.relation": "=", "IC50": 0.0086}
{"compound": "COc1cc(-c2cc(F)cc(F)c2)c(F)cc1-n1c2c(ccc1=O)[C@H](C)N(S(=O)(=O)Nc1ccon1)CC2 (single isomer, unassigned) [Example 3-B-P]", "unit.spec": "µM", "reported.relation": "=", "IC50": 0.197}
{"compound": "COc1cc(-c2ccc(C(F)(F)F)cc2)c(F)cc1-n1c2c(ccc1=O)CN(S(=O)(=O)Nc1cccnn1)CC2", "unit.spec": "µM", "reported.relation": "=", "IC50": 0.0205}
{"compound": "COc1cc(-c2cc(F)cc(F)c2)c(F)cc1-n1c2c(ccc1=O)CN(S(=O)(=O)Nc1ccon1)[C@@H](C)C2 (single isomer, unassigned) [Example 3-C-M]", "unit.spec": "µM", "reported.relation": "=", "IC50": 8.52}
{"compound": "COc1cc(-c2cc(OC)c(-n3c4c(ccc3=O)CN(S(=O)(=O)Nc3cccnn3)CC4)cc2F)ccc1Cl (single isomer, unassigned) [Example 2-P]", "unit.spec": "µM", "reported.relation": "=", "IC50": 0.0066}
{"compound": "COc1cc(-c2cc(F)cc(Cl)c2)c(F)cc1-n1c2c(ccc1=O)CN(S(=O)(=O)Nc1ncns1)CC2 (racemic) [5-(Rac)]", "unit.spec": "µM", "reported.relation": "=", "IC50": 0.0067}
{"compound": "COc1cc(CCC(F)(F)F)c(Cl)cc1-n1c2c(ccc1=O)CN(S(=O)(=O)Nc1cccnn1)CC2 (single isomer, unassigned) [Example 96-P]", "unit.spec": "µM", "reported.relation": "=", "IC50": 0.0339}
{"compound": "COc1cc(-c2cc(F)cc(F)c2)c(F)cc1-n1c2c(ccc1=O)CN(S(=O)(=O)Nc1ccon1)[C@@H](C)C2 (single isomer, unassigned) [Example 3-C-P]", "unit.spec": "µM", "reported.relation": ">", "IC50": 30}
{"compound": "COc1cc(-c2cc(F)cc(F)c2)c(F)cc1-n1c2c(ccc1=O)CN(S(=O)(=O)Nc1ncc(F)cn1)CC2 (single isomer, unassigned) [Example 10-M]", "unit.spec": "µM", "reported.relation": "=", "IC50": 0.102}
{"compound": "COc1cc(-c2cc(OC)c(-n3c4c(ccc3=O)CN(S(=O)(=O)Nc3ccon3)CC4)cc2F)ccc1C (single isomer, unassigned) [Example 58-M]", "unit.spec": "µM", "reported.relation": "=", "IC50": 1.48}
{"compound": "COc1cc(C#CC2CCCC2)c(F)cc1-n1c2c(ccc1=O)CN(S(=O)(=O)Nc1ccon1)CC2 (single isomer, unassigned) [Example 34-P]", "unit.spec": "µM", "reported.relation": "=", "IC50": 0.0122}
{"compound": "COc1cc(-c2cc(F)c(F)c(OC)c2)c(F)cc1-n1c2c(ccc1=O)CN(S(=O)(=O)Nc1cccnn1)CC2", "unit.spec": "µM", "reported.relation": "=", "IC50": 0.0026}
{"compound": "COc1cc(-c2ccc(Cl)c(C)c2)c(F)cc1-n1c2c(ccc1=O)CN(S(=O)(=O)Nc1ncccn1)CC2 (single isomer, unassigned) [Example 30-M]", "unit.spec": "µM", "reported.relation": "=", "IC50": 3.91}
{"compound": "COc1cc(-c2cc(F)cc(Cl)c2)c(F)cc1-n1c2c(ccc1=O)CN(S(=O)(=O)Nc1ccon1)CC2 (racemic) [Example 18-(Rac)]", "unit.spec": "µM", "reported.relation": "=", "IC50": 0.0069}
{"compound": "COc1cc(-c2cc(F)cc(Cl)c2)c(F)cc1-n1c2c(ccc1=O)CN(S(=O)(=O)Nc1cc(C)ncn1)CC2 (single isomer, unassigned) [Example 4-M]", "unit.spec": "µM", "reported.relation": "=", "IC50": 8.3}

* * *

Molecular target: human Nav1.7 (Homo sapiens)
Construct: expressed in transfected cells; host or cells: HEK293
Assay: Nav 1.7 In Vitro PatchXpress (PX) Assay
Type: cell-based
Conditions: HEK 293 cells stably transfected with human Nav1.7; PatchXpress whole cell voltage clamp; partially inactivated state (holding potential yielding 20 to 50% inactivation); read-out: hNav1.7 PX IC50
pIC50: −log10 of the molar value.

{"compound": "COc1cc(-c2cccc(OC(F)(F)F)c2)c(F)cc1-n1c2c(ccc1=O)CN(S(=O)(=O)Nc1cccnn1)CC2 [Example 66]", "reported.relation": "=", "pIC50": 7.43}
{"compound": "COc1cc(C(F)(F)F)ccc1-n1c2c(ccc1=O)CN(S(=O)(=O)Nc1ccon1)CC2 (single isomer, unassigned) [Example 26-P]", "reported.relation": "<", "pIC50": 6.00}
{"compound": "COc1cc(-c2cccc(C(F)(F)F)c2)c(Cl)cc1-n1c2c(ccc1=O)CN(S(=O)(=O)Nc1ccon1)CC2 [Example 54]", "reported.relation": "=", "pIC50": 8.16}
{"compound": "COc1cc(-c2cc(Cl)cnc2OC)c(F)cc1-n1c2c(ccc1=O)CN(S(=O)(=O)Nc1cccnn1)CC2 [Example 60]", "reported.relation": "=", "pIC50": 6.38}
{"compound": "COc1cc(-c2cc(C)cc(OC(F)(F)F)c2)c(F)cc1-n1c2c(ccc1=O)CN(S(=O)(=O)Nc1cccnn1)CC2 [Example 78]", "reported.relation": "=", "pIC50": 7.35}
{"compound": "COc1ccc(-c2cccc(Cl)c2C)cc1-n1c2c(ccc1=O)CN(S(=O)(=O)Nc1cccnn1)CC2 [Example 57-P]", "reported.relation": "=", "pIC50": 6.64}
{"compound": "COc1cc(-c2cccc(OC(F)F)c2)c(F)cc1-n1c2c(ccc1=O)CN(S(=O)(=O)Nc1ccon1)CC2 (racemic) [Example 19-(Rac)]", "reported.relation": "=", "pIC50": 6.93}
{"compound": "COc1cc(-c2cc(F)cc(F)c2)c(F)cc1-n1c2c(ccc1=O)CN(S(=O)(=O)Nc1ccncn1)CC2 [Example 88]", "reported.relation": "=", "pIC50": 6.32}
{"compound": "COc1cc(-c2ccc(Cl)c(C)c2)c(F)cc1-n1c2c(ccc1=O)CN(S(=O)(=O)Nc1cc(C)ncn1)CC2 (racemic) [Example 40]", "reported.relation": "=", "pIC50": 6.69}
{"compound": "COc1cc(-c2cc(F)cc(F)c2)c(F)cc1-n1c2c(ccc1=O)[C@@H](C)N(S(=O)(=O)Nc1ccon1)CC2 [Example 3-A-P]", "reported.relation": "<", "pIC50": 6.00}
{"compound": "COc1cc(-c2cc(F)cc(Cl)c2)c(F)cc1-n1c2c(ccc1=O)CN(S(=O)(=O)Nc1ncns1)CC2 (racemic) [5-(Rac)]", "reported.relation": "=", "pIC50": 7.26}
{"compound": "COc1cc(-c2ccc(F)c(C)c2)c(F)cc1-n1c2c(ccc1=O)CN(S(=O)(=O)Nc1ncccn1)CC2 (single isomer, unassigned) [Example 29-P]", "reported.relation": "=", "pIC50": 6.25}
{"compound": "COc1cc(-c2ccc(F)c(C)c2)c(F)cc1-n1c2c(ccc1=O)CN(S(=O)(=O)Nc1ccon1)CC2 (single isomer, unassigned) [Example 22-M]", "reported.relation": "<", "pIC50": 4.52}
{"compound": "COc1cc(-c2ccc(Cl)c(C#N)c2)c(F)cc1-n1c2c(ccc1=O)CN(S(=O)(=O)Nc1ccon1)CC2 (racemic) [Example 35]", "reported.relation": "=", "pIC50": 6.75}
{"compound": "COc1cc(-c2cc(F)cc(C(F)(F)F)c2)c(F)cc1-n1c2c(ccc1=O)CN(S(=O)(=O)Nc1cccnn1)CC2 [Example 41]", "reported.relation": "=", "pIC50": 7.48}
{"compound": "COc1cc(-c2ccc(F)c(C)c2)c(Cl)cc1-n1c2c(ccc1=O)CN(S(=O)(=O)Nc1cccnn1)CC2 (single isomer, unassigned) [Example 92-P]", "reported.relation": "=", "pIC50": 7.38}
{"compound": "COc1cc(-c2ccc(F)c(F)c2)c(F)cc1-n1c2c(ccc1=O)CN(S(=O)(=O)Nc1ccon1)CC2 (single isomer, unassigned) [Example 20-P]", "reported.relation": "=", "pIC50": 7.41}
{"compound": "COc1cc(-c2ccc(F)c(F)c2)c(F)cc1-n1c2c(ccc1=O)CN(S(=O)(=O)Nc1ncccn1)CC2 (single isomer, unassigned) [Example 28-P]", "reported.relation": "=", "pIC50": 6.30}
{"compound": "COc1cc(-c2cc(OC)c(-n3c4c(ccc3=O)CN(S(=O)(=O)Nc3ccon3)CC4)cc2F)ccc1Cl (racemic) [Example 15-(Rac)]", "reported.relation": "=", "pIC50": 7.66}
{"compound": "COc1cc(-c2cccc(C(F)(F)F)c2)c(Cl)cc1-n1c2c(ccc1=O)CN(S(=O)(=O)Nc1cccnn1)CC2 (racemic) [Example 91-(Rac)]", "reported.relation": "=", "pIC50": 7.52}
{"compound": "COc1cc(C(F)(F)F)ccc1-n1c2c(ccc1=O)CN(S(=O)(=O)Nc1ccon1)CC2 (racemic) [Example 26-(Rac)]", "reported.relation": "<", "pIC50": 6.00}
{"compound": "COc1ccc(-c2ccc(C)c(Cl)c2)cc1-n1c2c(ccc1=O)CN(S(=O)(=O)Nc1cccnn1)CC2 (single isomer, unassigned) [Example 55-M]", "reported.relation": "<", "pIC50": 6.00}
{"compound": "COc1cc(-c2ccc(Cl)c(C)c2)c(F)cc1-n1c2c(ccc1=O)CN(S(=O)(=O)Nc1ncccn1)CC2 (racemic) [Example 30]", "reported.relation": "=", "pIC50": 6.00}
{"compound": "COc1ccc(-c2ccc(Cl)c(C)c2)cc1-n1c2c(ccc1=O)CN(S(=O)(=O)Nc1cccnn1)CC2 [Example 56-P]", "reported.relation": "=", "pIC50": 6.31}
{"compound": "COc1ccc(C(F)(F)F)cc1-c1cc(OC)c(-n2c3c(ccc2=O)CN(S(=O)(=O)Nc2cccnn2)CC3)cc1F [Example 74]", "reported.relation": "=", "pIC50": 7.53}
